# Test system: NOMO1
# method: cell viability relative to DMSO control; higher = less cytotoxic
# experimental.context: RPMI 5 mM glucose + 10% FBS; 48 h; 0.569 µM
measured.attribute: cell viability (%)

CC(C)C[C@H](NC(=O)[C@@H](NC(=O)c1cccc(-c2ccccc2)n1)[C@@H](C)O)B(O)O : 8.87
CC(=O)Nc1ccc([C@H](C)C(=O)Nc2ncc(C(C)C)s2)cc1 : 104
NC1=NC=C(C=C1)C2=CC=C3N=CC\4=C(N(C(=O)\C=C4)C5=CC(=CC=C5)C(F)(F)F)C3=C2 : 30.3
CC(=O)C\1=C(/C)C2=CN=C(NC3=CC=C(C=N3)N4CCNCC4)N=C2N(C5CCCC5)C1=O : 105
